Assay: in vivo
Conditions: female, C57BL/6, mouse, in vivo, iv, 1 mg/kg

Smiles Representation: N=C(N)c1ccc(OCCN(CCOc2ccc(C(=N)N)cc2)c2ccccc2)cc1
Measure Unit: h
half-life: 1.61

###

Tested on: P. aeruginosa (PA01)
Test: Checkerboard potentiation assay with novobiocin
Format: cell-based

Molecule: N=C(N)c1ccc(OCCN(CCOc2ccc(C(=N)N)cc2)Cc2ccccc2)cc1
FICI PA: 0.5
//
Molecule: CC(C)(CCOc1ccc(C(=N)N)cc1)CCOc1ccc(C(=N)N)cc1
FICI PA: 0.375
//
Molecule: CCC(CC)(CCOc1ccc(C(=N)N)cc1)CCOc1ccc(C(=N)N)cc1
FICI PA: 1
//
Molecule: N=C(N)c1ccc(OCCCCCOc2ccc(C(=N)N)cc2)cc1 [Pentamidine, pentamidine, reference compound]
FICI PA: 0.75
//
Molecule: CC(CCCC(C)Oc1ccc(C(=N)N)cc1)Oc1ccc(C(=N)N)cc1 (stereo not shown)
FICI PA: 0.281
//
Molecule: N=C(N)c1ccc(OCCC2(CCOc3ccc(C(=N)N)cc3)CCCC2)cc1
FICI PA: 0.281
//
Molecule: N=C(N)c1ccc(OCCCCCOc2ccc(C(=N)N)cc2F)c(F)c1
FICI PA: 0.5
//
Molecule: N=C(N)c1ccc(OCCC(N)CCOc2ccc(C(=N)N)cc2)cc1 (stereo not shown)
FICI PA: 2
//
Molecule: C[C@@H](CCCOc1ccc(C(=N)N)cc1)COc1ccc(C(=N)N)cc1 [Analog P22R]
FICI PA: 0.3125
//
Molecule: c1c[nH]c(-c2ccc(OCCCCCOc3ccc(-c4ncc[nH]4)cc3)cc2)n1
FICI PA: 2
//
Molecule: C[C@@H](CCC[C@H](C)Oc1ccc(C(=N)N)cc1)Oc1ccc(C(=N)N)cc1 [Analog P15A]
FICI PA: 0.5
//
Molecule: C[C@H](CCCOc1ccc(C(=N)N)cc1)COc1ccc(C(=N)N)cc1 [Analog P22S]
FICI PA: 0.375
//
Molecule: N=C(NC1CCCCC1)c1ccc(OCCCCCOc2ccc(C(=N)NC3CCCCC3)nc2)cn1
FICI PA: 2
//
Molecule: N=C(N)c1ccc(OCCCCCOc2ccc(C(=N)N)cn2)nc1
FICI PA: 2
//
Molecule: N=C(N)c1ccc(OCCC2(CCOc3ccc(C(=N)N)cc3)CCCCC2)cc1
FICI PA: 0.625
//
Molecule: N=C(N)c1ccc(OCCC[C@H]2CCCN(c3ccc(C(=N)N)cc3)C2)cc1 [Analog P24B]
FICI PA: 0.75
//
Molecule: N/C(=N\O)c1ccc(OCCCCCOc2ccc(/C(N)=N/O)nc2)cn1
FICI PA: 2
//
Molecule: N=C(N)c1ccc(OCCC[C@@H]2CCCN(c3ccc(C(=N)N)cc3)C2)cc1 [Analog P24A]
FICI PA: 0.375
//
Molecule: N=C(N)c1ccc(OCCNCCOc2ccc(C(=N)N)cc2)cc1 [Analog P31A]
FICI PA: 2
//
Molecule: N=C(N)c1ccc(OCCC2CCCCC2CCOc2ccc(C(=N)N)cc2)cc1 (stereo not shown)
FICI PA: 1
//
Molecule: C[C@H](CCC[C@@H](C)Oc1ccc(C(=N)N)cc1)Oc1ccc(C(=N)N)cc1 [Analog P15C]
FICI PA: 0.375
//
Molecule: N=C(N)c1ccc(OCCC2(CCOc3ccc(C(=N)N)cc3)CCC(C(=O)O)CC2)cc1 (stereo not shown)
FICI PA: 2
//
Molecule: N=C(N)c1ccc(OCCN(CCOc2ccc(C(=N)N)cc2)CCC(F)(F)F)cc1
FICI PA: 0.375
//
Molecule: N=C(N)c1ccc(OCCCCCOc2ccc(C(=N)N)nc2)cn1
FICI PA: 1
//
Molecule: N=C(N)c1ccc(OC2CCC(Oc3ccc(C(=N)N)cc3)CC2)cc1 (stereo not shown)
FICI PA: 2
//
Molecule: C[C@H](CCC[C@H](C)Oc1ccc(C(=N)N)cc1)Oc1ccc(C(=N)N)cc1 [Analog P15B]
FICI PA: 0.187
//
Molecule: N=C(N)c1ccc(OCCC2(CCOc3ccc(C(=N)N)cc3)CCCCCC2)cc1
FICI PA: 0.531
//
Molecule: N=C(N)c1ccc(OCCC2(CCOc3ccc(C(=N)N)cn3)CCCC2)nc1
FICI PA: 0.3125
//
Molecule: N=C(N)c1ccc(OCCC(CCOc2ccc(C(=N)N)cc2)N2CCCC2)cc1 (stereo not shown)
FICI PA: 2
//
Molecule: N=C(N)c1ccc(OCC2(COc3ccc(C(=N)N)cc3)CCCCC2)cc1
FICI PA: 0.187
//
Molecule: N=C(N)c1ccc(OCCN(CCOc2ccc(C(=N)N)cc2)c2ccccc2)cc1
FICI PA: 0.3125
